Listing of recorded Ki by entry.
molecular target: Mu-type opioid receptor (Rattus norvegicus); experiment: Compound was evaluated for its ability to displace [3H]DAMGO in C6 glioma cells expressing the cloned Opioid receptor mu 1; type: cell-based
Sequence (P33535 whole entry): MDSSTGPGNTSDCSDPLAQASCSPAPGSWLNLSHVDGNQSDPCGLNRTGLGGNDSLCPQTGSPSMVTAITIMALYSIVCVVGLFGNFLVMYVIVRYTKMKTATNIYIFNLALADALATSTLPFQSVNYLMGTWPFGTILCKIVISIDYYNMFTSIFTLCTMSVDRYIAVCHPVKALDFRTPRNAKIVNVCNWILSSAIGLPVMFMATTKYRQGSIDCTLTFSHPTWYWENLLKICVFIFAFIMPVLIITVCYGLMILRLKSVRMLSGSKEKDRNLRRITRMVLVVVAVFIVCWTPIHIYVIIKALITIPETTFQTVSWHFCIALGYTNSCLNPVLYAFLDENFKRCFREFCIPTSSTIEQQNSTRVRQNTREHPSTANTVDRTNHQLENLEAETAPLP
Reply numerically in nM, unit not repeated.

Worked set:
{"compound": "Oc1ccc2c3c1OC1c4[nH]c5ccccc5c4C[C@@]4(O)[C@@H](C2)N(CCC2CCCCC2)CCC314 (stereo partly drawn)", "assay-target": "Mu-type opioid receptor (Rattus norvegicus)", "display-unit": "nM", "experimental-value": 7.3}
{"compound": "Oc1ccc2c3c1OC1c4[nH]c5ccccc5c4C[C@@]4(O)[C@@H](C2)N(CC2CCCCC2)CCC314 (stereo partly drawn)", "assay-target": "Mu-type opioid receptor (Rattus norvegicus)", "display-unit": "nM", "experimental-value": 1920}

Okay, now this compound:
Fill blank: measured Ki of the compound Oc1ccc2c3c1OC1c4[nH]c5ccccc5c4C[C@@]4(O)[C@@H](C2)N(Cc2ccccc2)CCC314 (stereo partly drawn) is ____.
5330
